# study-system: human FXR (NR1H4) (Homo sapiens)
# Sequence (Q96RI1 whole entry, the tested form may be a part): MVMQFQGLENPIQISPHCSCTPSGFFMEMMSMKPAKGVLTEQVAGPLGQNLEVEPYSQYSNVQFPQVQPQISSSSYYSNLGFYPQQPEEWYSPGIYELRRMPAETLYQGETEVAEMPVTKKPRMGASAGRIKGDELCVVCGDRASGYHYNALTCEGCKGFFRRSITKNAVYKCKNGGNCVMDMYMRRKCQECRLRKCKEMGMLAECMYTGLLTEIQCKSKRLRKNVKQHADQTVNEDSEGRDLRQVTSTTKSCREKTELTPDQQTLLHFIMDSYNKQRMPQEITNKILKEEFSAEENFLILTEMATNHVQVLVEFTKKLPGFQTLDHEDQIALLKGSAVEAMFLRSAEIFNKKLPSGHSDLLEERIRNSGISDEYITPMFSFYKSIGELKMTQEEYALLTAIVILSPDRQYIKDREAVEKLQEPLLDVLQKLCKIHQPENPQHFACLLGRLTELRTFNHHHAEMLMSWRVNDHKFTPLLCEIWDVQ
# experiment: Human FXR (NR1H4) Assay: Gal4 promoter driven luciferase reporter transactivation in CHO cells (Indigo Bioscience kit IB00601)
# Assay type: cell-based
# conditions-used: potency range, Human FXR (NR1H4) reporter assay in CHO cells; read-out: EC50
assay-endpoint: EC50

Illustrative cases are given below, each with its answer.
CC(=O)N1CCC(c2cccc(NC(=O)N3C4CCC3CC(OCc3c(-c5c(Cl)cccc5Cl)noc3C3CC3)C4)c2)CC1 (centres unmarked)	10 to 100 nM
O=C(NCc1ccccc1)N1C2CCC1CC(OCc1c(-c3c(Cl)cccc3Cl)noc1C1CC1)C2 (centres unmarked)	< 10 nM
CCOC(=O)c1ccc(NC(=O)N2C3CCC2CC(NCc2c(-c4c(Cl)cccc4Cl)noc2C2CC2)C3)cc1 (centres unmarked)	10 to 100 nM
O=C(O)c1ccc(NC(=O)N2C3CCC2CC(OCc2c(-c4ccccc4C4CC4)noc2C2CC2)C3)c(C(F)(F)F)c1 (centres unmarked)	10 to 100 nM
O=C(Nc1cccc(-c2ccccc2)c1)N1C2CCC1CC(OCc1c(-c3c(Cl)cccc3Cl)noc1C1CC1)C2 (centres unmarked)	< 10 nM
O=C(O)c1cnc2cc(NC(=O)N3C4CCC3CC(OCc3c(-c5c(Cl)cccc5Cl)noc3C3CC3)C4)ccc2c1 (centres unmarked)	10 to 100 nM

// field: EC50; key: O=C(O)c1ccc(NC(=O)N2C3CCC2CC(OCc2c(-c4ccccc4OC(F)(F)F)noc2C2CC2)C3)nc1 (centres unmarked) ; value = 100 to 1000 nM

The molecule CCOc1cc(C(=O)O)ccc1NC(=O)N1C2CCC1CC(OCc1c(-c3c(F)cccc3F)noc1C1CC1)C2 (centres unmarked) showed EC50 equal to 10 to 100 nM

Entry under test: CC(C)S(=O)(=O)NC(=O)c1ccc(NC(=O)N2C3CCC2CC(OCc2c(-c4ccccc4OC(F)(F)F)noc2C2CC2)C3)cc1 (centres unmarked) . Its EC50 was 100 to 1000 nM

CCOc1cc(C(=O)O)ccc1NC(=O)N1C2CCC1CC(NCc1c(-c3ccccc3OC(F)(F)F)noc1C1CC1)C2 (centres unmarked) yielded EC50 of 10 to 100 nM

molecule O=C(Nc1ccccc1F)N1C2CCC1CC(OCc1c(-c3c(Cl)cccc3Cl)noc1C1CC1)C2 (centres unmarked) , EC50 observed: 10 to 100 nM
